# targetDesc: T1, Caspase-10 (UniProt Q92851)
# T1 sequence (looked up): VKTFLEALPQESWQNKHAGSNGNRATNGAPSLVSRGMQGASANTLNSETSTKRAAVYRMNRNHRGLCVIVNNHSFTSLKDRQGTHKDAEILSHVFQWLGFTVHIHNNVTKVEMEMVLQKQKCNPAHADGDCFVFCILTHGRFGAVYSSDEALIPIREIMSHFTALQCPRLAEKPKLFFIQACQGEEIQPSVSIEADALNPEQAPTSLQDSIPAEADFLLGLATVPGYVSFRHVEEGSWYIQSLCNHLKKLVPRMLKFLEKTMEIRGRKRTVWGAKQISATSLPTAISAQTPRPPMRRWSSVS
# protocolSummary: cell-based or functional assay
Numbered stars: 1 amine (or outer) side, 2 acyl side, 3 side chain; on linkers, the order of the positions; unused ones are H or OH. Square brackets hold non-standard residues; d marks the D form. * marks the point of attachment. CH═CH‑CON(CH2Ph)2 = O=C(/C=C/*)N(Cc1ccccc1)Cc1ccccc1; CH═CH‑CON(CH3)CH2CH2Ph = CN(CCc1ccccc1)C(=O)/C=C/*; AAsp = aza-Asp, O=C(N(CC(=O)[*:3])N[*:1])[*:2]; CH═CH‑CON(CH3)CH2Ph = CN(Cc1ccccc1)C(=O)/C=C/*; CH═CH‑COOCH2Ph = O=C(/C=C/*)OCc1ccccc1; CH:CH‑COOEt = CCOC(=O)/C=C/*; CH═CH‑COOEt = CCOC(=O)/C=C/*; Cbz = O=C(OCc1ccccc1)*
Assignment: determine reported k2 for the given binders.
One number for each entry, in M⁻¹ s⁻¹.

Take a look at these entries with their results.
{"binder": "Cbz-IET[AAsp]-{CH═CH‑CON(CH3)CH2CH2Ph} (SMILES CC[C@H](C)[C@H](NC(=O)OCc1ccccc1)C(=O)N[C@@H](CCC(=O)O)C(=O)N[C@H](C(=O)NN(CC(=O)O)C(=O)/C=C/C(=O)N(C)CCc1ccccc1)[C@@H](C)O) [Cbz-Ile-Glu-Thr-AAsp-CH═CH-CON(CH3)CH2CH2Ph]", "k2 / M⁻¹ s⁻¹": 8770}
{"binder": "Cbz-IET[AAsp]-{CH═CH‑CONHCH2CH2Ph} [Cbz-Ile-Glu-Thr-AAsp-CH═CH-CONHCH2CH2Ph]", "k2 / M⁻¹ s⁻¹": 8290}
{"binder": "Cbz-IET[AAsp]-{CH═CH‑CONHPh} [Cbz-Ile-Glu-Thr-AAsp-CH═CH-CONHPh]", "k2 / M⁻¹ s⁻¹": 9210}
{"binder": "Cbz-IET[AAsp]-{CH═CH‑CON(CH2Ph)2} (SMILES CC[C@H](C)[C@H](NC(=O)OCc1ccccc1)C(=O)N[C@@H](CCC(=O)O)C(=O)N[C@H](C(=O)NN(CC(=O)O)C(=O)/C=C/C(=O)N(Cc1ccccc1)Cc1ccccc1)[C@@H](C)O) [Cbz-Ile-Glu-Thr-AAsp-CH═CH-CON(CH2Ph)2]", "k2 / M⁻¹ s⁻¹": 7930}
{"binder": "Cbz-IET[AAsp]-{CH═CH‑CON(CH3)CH2Ph} (SMILES CC[C@H](C)[C@H](NC(=O)OCc1ccccc1)C(=O)N[C@@H](CCC(=O)O)C(=O)N[C@H](C(=O)NN(CC(=O)O)C(=O)/C=C/C(=O)N(C)Cc1ccccc1)[C@@H](C)O) [Cbz-Ile-Glu-Thr-AAsp-CH═CH-CON(CH3)CH2Ph]", "k2 / M⁻¹ s⁻¹": 8500}
{"binder": "Cbz-VEV[AAsp]-{CH:CH‑COOEt} (SMILES CCOC(=O)/C=C/C(=O)N(CC(=O)O)NC(=O)[C@@H](NC(=O)[C@H](CCC(=O)O)NC(=O)[C@@H](NC(=O)OCc1ccccc1)C(C)C)C(C)C) [Cbz-Val-Glu-Val-AAsp-CH═CH-COOEt]", "k2 / M⁻¹ s⁻¹": 6600}

Kindly give each listed record's k2.
1. Cbz-IET[AAsp]-{CH═CH‑CONHCH2Ph} [Cbz-Ile-Glu-Thr-AAsp-CH═CH-CONHCH2Ph]
2. Cbz-IET[AAsp]-{CH═CH‑COOEt} (SMILES CCOC(=O)/C=C/C(=O)N(CC(=O)O)NC(=O)[C@@H](NC(=O)[C@H](CCC(=O)O)NC(=O)[C@@H](NC(=O)OCc1ccccc1)[C@@H](C)CC)[C@@H](C)O) [Cbz-Ile-Glu-Thr-AAsp-CH═CH-COOEt]
3. Cbz-IET[AAsp]-{CH═CH‑COOCH2Ph} (SMILES CC[C@H](C)[C@H](NC(=O)OCc1ccccc1)C(=O)N[C@@H](CCC(=O)O)C(=O)N[C@H](C(=O)NN(CC(=O)O)C(=O)/C=C/C(=O)OCc1ccccc1)[C@@H](C)O) [Cbz-Ile-Glu-Thr-AAsp-CH═CH-COOCH2Ph]

*A*
503
6900
15200
